Value source: the supplement of paper PMC13380429

Listing: cell viability of selected compounds
tested on: U2OS; assay: cell viability relative to DMSO; higher = less toxic; details: 72 h; 10000 nM
Please answer in the form of a number followed by its unit of measurement.

>  <Compound>
c1ccc(N2CCN(Cc3nc4ccccc4[nH]3)CC2)nc1 [ABT-724]

>  <cell viability>
98.6%

$$$$

The reported value for CC1(C)CCC(C)(C)c2c1cc(C(=O)Nc1cc(F)c(C(=O)O)c(F)c1)c(O)c2Cl in terms of cell viability is 92.7%

The reported value for COC1=C(OC)C(=O)C(CCCCCCCCCCO)=C(C)C1=O [idebenone] in terms of cell viability is 93.8%
